Data provenance: patent US9795601B2

- Test system: A172 (Malignant glioma)
- assay-method-text: Cancer cell lines assay (Alamar Blue, day 5), A172
- Type: cell-based
- condition-context: Homo sapiens, A 172, 120 h; A172 (Malignant glioma) cells, Alamar Blue on day 5; read-out: Linezolid IC50
pIC50: −log10 of the molar value.
result-type: pIC50

Which pIC50 is reported for this compound? CC(=O)NC[C@H]1CN(c2ccc(N3CCOCC3)c(F)c2)C(=O)O1 [Linezolid]
3.15 to 3.22
